target.or.system: Cytochrome P450 1A2 (Homo sapiens)
assay.name: Cytochrome panel assay with activity outcomes
measurement.conditions: recombinant CYP, pro-luciferin dealkylation, luminescence, p450-cyp1a2; series mostly up to 57.1 µM
Hit rate of the full screen: of about 16,000 compounds, about 5,700 (36%) were called active. Not shown: some 24% with an inconclusive outcome. The call rests on the fitted dose curve; in most records, active means well fitted curve in the direction sought with a large enough effect; inconclusive means small, poorly fitted or top-dose-only effect, or effect the other way; inactive means no such curve, though single readings can be large or run the other way. The list shows a part of the results.
Possible outcomes: active, inactive

> print(dat)
                                    molecule                    target.or.system  qualitative.label
 1  CCOC(=O)COc1ccc(/C=C/[N+](=O)[O-])c(OCC(=O)OCC)c1  Cytochrome P450 1A2 (Homo sapiens)             active
 2       O=C(Nc1ncc(Cc2cccc(Cl)c2)s1)c1cccs1  Cytochrome P450 1A2 (Homo sapiens)             active
 3    O=C1Cc2c([nH]c3ccc(Br)cc23)-c2ccccc2N1  Cytochrome P450 1A2 (Homo sapiens)             active
 4                   O=C1CCCCC(=O)c2ccccc2N1  Cytochrome P450 1A2 (Homo sapiens)           inactive
 5                     NCCC(=O)NCCc1cnc[nH]1  Cytochrome P450 1A2 (Homo sapiens)           inactive
 6                 CCCc1nnc(NC(=O)c2cccs2)s1  Cytochrome P450 1A2 (Homo sapiens)             active
 7  CN(C)C(=O)c1ccc(-c2nc(NCc3cccs3)c3ccccc3n2)cc1  Cytochrome P450 1A2 (Homo sapiens)             active
 8  CC1Cc2ccccc2N1C(=O)Cn1c(=O)cc(O)c2ccccc21 (stereo unspecified)  Cytochrome P450 1A2 (Homo sapiens)             active
 9               CNC(=O)C(=O)NCCc1ccc(Cl)cc1  Cytochrome P450 1A2 (Homo sapiens)             active
10  C(=C1/CCCC2=C1Nc1ncnn1C2c1ccccc1)/c1ccccc1 (stereo unspecified)  Cytochrome P450 1A2 (Homo sapiens)             active
11  CNC(=S)N1N=C(c2ccc(OC)cc2)CC1c1ccc(N(C)C)cc1 (stereo unspecified)  Cytochrome P450 1A2 (Homo sapiens)             active
12  Cc1nnc(SCC2=C(C(=O)O)N3C(=O)[C@@H](NC(=O)Cn4cnnn4)[C@@H]3SC2)s1  Cytochrome P450 1A2 (Homo sapiens)           inactive
13  COc1ccc(CNc2ncncc2-c2ccc(C(=O)N(C)C)cc2)c(OC)c1  Cytochrome P450 1A2 (Homo sapiens)             active
14  CC(=O)OCC(=O)[C@@]1(O)CC[C@@H]2[C@H]3CCC4=CC(=O)CC[C@]4(C)[C@]3(F)[C@@H](O)C[C@@]21C  Cytochrome P450 1A2 (Homo sapiens)           inactive
15     Cc1cnc(CNc2nc(-c3ccoc3)nc3ccccc23)cn1  Cytochrome P450 1A2 (Homo sapiens)             active
16         Nc1ccccc1SCc1csc(-c2ccc(Cl)cc2)n1  Cytochrome P450 1A2 (Homo sapiens)             active
17        COC(=O)N1CCC2(CCCN(Cc3nccs3)C2)CC1  Cytochrome P450 1A2 (Homo sapiens)           inactive
18    COCCNc1ncnc2ccc(-c3ccccc3C(F)(F)F)cc12  Cytochrome P450 1A2 (Homo sapiens)             active
19          CCCNS(=O)(=O)c1ccc(OCC(=O)OC)cc1  Cytochrome P450 1A2 (Homo sapiens)           inactive
20    CC(C)CN1CCC2(CC1)CCN(C(=O)c1cnccn1)CC2  Cytochrome P450 1A2 (Homo sapiens)           inactive
21          CSC(=NC#N)N1CCN(c2ccc(Cl)cc2)CC1  Cytochrome P450 1A2 (Homo sapiens)             active
22              CCCN(CCC)CCc1cccc2c1CC(=O)N2  Cytochrome P450 1A2 (Homo sapiens)           inactive
23   COc1ccc2c(Cl)c(C(=O)NCCCn3ccnc3)sc2c1Cl  Cytochrome P450 1A2 (Homo sapiens)             active
24  COC(=O)C1=C(C)Nc2ncnn2C1c1cccnc1 (stereo unspecified)  Cytochrome P450 1A2 (Homo sapiens)           inactive
25  CN(C)CCN1C(=O)C(O)=C(C(=O)c2cc3ccccc3o2)C1c1cccc(Br)c1 (stereo unspecified)  Cytochrome P450 1A2 (Homo sapiens)           inactive
26  COc1ccc(C(=O)N/C(=C/c2cccs2)C(=O)NCCCn2ccnc2)cc1OC  Cytochrome P450 1A2 (Homo sapiens)           inactive
27  COC(=O)/C(=C\C(=O)c1ccccc1)Nc1cccc(C(F)(F)F)c1  Cytochrome P450 1A2 (Homo sapiens)             active
28  N#Cc1c(-c2ccc3c(c2)OCO3)ccn2nc(-c3cccc(C(F)(F)F)c3)nc12  Cytochrome P450 1A2 (Homo sapiens)             active
29        COc1cc([C@@H](O)CO)ccc1OS(=O)(=O)O  Cytochrome P450 1A2 (Homo sapiens)           inactive
30  Cc1cc(=O)[nH]c2c1c(C)nn2C1CCOC(C)(C)C1 (stereo unspecified)  Cytochrome P450 1A2 (Homo sapiens)           inactive
31  C[C@@H]1Cc2ccccc2N1NC(=O)c1ccc(Cl)c(S(N)=O)c1 (stereo partly specified)  Cytochrome P450 1A2 (Homo sapiens)           inactive
32        Cc1ccc(N=Cc2cc(C)n(C3CCCC3)c2C)cc1  Cytochrome P450 1A2 (Homo sapiens)             active
33  COc1ccc(CNc2ncncc2-c2ccc(N(C)C)cc2)c(OC)c1  Cytochrome P450 1A2 (Homo sapiens)             active
34           O=C(NCCc1ccc(O)cc1)c1ccc(Cl)cc1  Cytochrome P450 1A2 (Homo sapiens)             active
35  Cc1nc(N/N=C/c2ccccc2)nc(N(C)c2ccccc2)c1[N+](=O)[O-]  Cytochrome P450 1A2 (Homo sapiens)             active
36  COc1ccc(-c2cc(C(=O)O)c3c(C)nn(-c4ccccn4)c3n2)cc1  Cytochrome P450 1A2 (Homo sapiens)           inactive
37          COCCNc1ncnc2ccc(-c3ccccc3OC)cc12  Cytochrome P450 1A2 (Homo sapiens)             active
38  CN(C)C(=O)c1ccc(-c2nc(Nc3ccccc3)c3ccccc3n2)cc1  Cytochrome P450 1A2 (Homo sapiens)             active
39      Cc1ccc(/C=N\Nc2nc3ccc(Cl)cc3[nH]2)o1  Cytochrome P450 1A2 (Homo sapiens)             active
40       COCC(=O)N1CCC2(CC1)CCN(c1ccccn1)CC2  Cytochrome P450 1A2 (Homo sapiens)           inactive
41  O=C(O)CC/C=C\CC[C@H]1[C@@H](N2CCCCC2)[C@@H](O)C[C@@H]1OCc1ccc(-c2ccccc2)cc1  Cytochrome P450 1A2 (Homo sapiens)           inactive
42       CCCc1nnc(NC(=O)Cn2cnc3ccccc3c2=O)s1  Cytochrome P450 1A2 (Homo sapiens)           inactive
43  CC1Cc2ccccc2N1C(=O)CN1C(=O)COc2ccccc21 (stereo unspecified)  Cytochrome P450 1A2 (Homo sapiens)           inactive
44  Cc1nc2ccccn2c1/C(O)=C1\C(=O)C(=O)N(CCN2CCOCC2)C1c1cccnc1 (stereo unspecified)  Cytochrome P450 1A2 (Homo sapiens)           inactive
45  CCCOc1ccc(/C=C/C(=O)Nc2ccc([N+](=O)[O-])cc2C)cc1  Cytochrome P450 1A2 (Homo sapiens)           inactive
46  CCOc1cc(NC(=O)c2cccs2)c(OCC)cc1NC(=O)c1ccco1  Cytochrome P450 1A2 (Homo sapiens)           inactive
